Biological target: IRAK4 (Homo sapiens, UniProt Q9NWZ3)
Test: ALE THP1 HTRF (IRAK4 degradation in THP1 cells, HTRF with anti-IRAK4 antibodies)
Type: cell-based
Set-up: THP1 Homogeneous Time Resolved Fluorescence (ALE THP1 HTRF) Procedure; endogenous in cells; host or cells: THP1
Conditions: THP1 cell lysate, YMIN
Quantity: ALE THP1 HTRF YMIN (%)

compound="N[C@@H]1C[C@@H](F)CN(c2ccn3ncc(C(=O)Nc4cn([C@H]5CC[C@H](C(=O)N6CCN(Cc7ccc(C8CCC(=O)NC8=O)cc7)CC6)CC5)nc4C(F)(F)F)c3n2)C1 (stereo partly drawn)" reported_result=57

[A] N[C@@H]1C[C@@H](F)CN(c2ccn3ncc(C(=O)Nc4cn([C@H]5CC[C@H](C(=O)NC6CCN(c7ccc(C8CCC(=O)NC8=O)nc7)CC6)CC5)nc4C(F)F)c3n2)C1 (stereo partly drawn)
[B] N[C@@H]1C[C@@H](F)CN(c2ccn3ncc(C(=O)Nc4cn([C@H]5CC[C@H](C(=O)N6CCC(Nc7ccc(C8CCC(=O)NC8=O)cc7)CC6)CC5)nc4C(F)(F)F)c3n2)C1 (stereo partly drawn)
**Query** // which entry has the larger ALE THP1 HTRF YMIN value, A or B ? Answer by stating the label of the chosen item.
**Result** B
(B: 52%, A: 15%)

====

Biological target: IRAK4 (Homo sapiens)
Sequence (Q9NWZ3 1-460): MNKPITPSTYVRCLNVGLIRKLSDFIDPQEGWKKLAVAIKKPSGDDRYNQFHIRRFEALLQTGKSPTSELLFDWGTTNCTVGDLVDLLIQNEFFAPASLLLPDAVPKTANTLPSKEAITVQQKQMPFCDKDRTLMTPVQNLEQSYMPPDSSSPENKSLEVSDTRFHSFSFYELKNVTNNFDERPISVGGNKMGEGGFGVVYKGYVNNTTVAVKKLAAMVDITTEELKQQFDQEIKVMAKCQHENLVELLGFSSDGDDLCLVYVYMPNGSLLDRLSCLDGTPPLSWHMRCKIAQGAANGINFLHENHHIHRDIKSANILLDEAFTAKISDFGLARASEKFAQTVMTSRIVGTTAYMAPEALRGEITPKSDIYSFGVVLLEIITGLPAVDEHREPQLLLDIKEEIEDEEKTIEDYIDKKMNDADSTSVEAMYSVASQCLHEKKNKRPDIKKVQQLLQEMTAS
Experiment: ALE THP1 HTRF (IRAK4 degradation in THP1 cells, HTRF with anti-IRAK4 antibodies)
Type: cell-based
Design: THP1 Homogeneous Time Resolved Fluorescence (ALE THP1 HTRF) Procedure; endogenous in cells; host or cells: THP1
Conditions: THP1 cell lysate, YMIN
Counter-ions that a name gives are not always drawn.
Quantity: ALE THP1 HTRF YMIN (%)

molecule="N[C@@H]1C[C@@H](F)CN(c2ccn3ncc(C(=O)Nc4cn([C@H]5CC[C@H](CCN6CCN(c7ccc(C8CCC(=O)NC8=O)cc7)CC6)CC5)nc4C(F)F)c3n2)C1 (some centres unmarked) [Compound P-21, formic acid salt]" assay_target="IRAK4 (Homo sapiens)" quantity="ALE THP1 HTRF YMIN" reported_result=15

[1] N[C@@H]1C[C@@H](F)CN(c2ccn3ncc(C(=O)Nc4cn([C@H]5CC[C@H](CN6CCN(Cc7ccc(C8CCC(=O)NC8=O)cc7)CC6)CC5)nc4C(F)(F)F)c3n2)C1 (some centres unmarked)
[2] N[C@@H]1C[C@@H](F)CN(c2ccn3ncc(C(=O)Nc4cn([C@H]5CC[C@H](C(=O)N6CCC(Nc7cccc(C8CCC(=O)NC8=O)c7)CC6)CC5)nc4C(F)(F)F)c3n2)C1 (some centres unmarked)
[3] N[C@@H]1C[C@@H](F)CN(c2ccn3ncc(C(=O)Nc4cn([C@H]5CC[C@H](CCN6CCC(c7ccc(C8CCC(=O)NC8=O)cc7)CC6)CC5)nc4C(F)F)c3n2)C1 (some centres unmarked)
**Query** Hey, quick one: sort these by ALE THP1 HTRF YMIN, largest value first please. Respond with an ordered listing of the labels, as requested.
**Result** 2, 1, 3
(2: 86%, 1: 18%, 3: 12%)

====

Target: IRAK4 (Homo sapiens, UniProt Q9NWZ3)
Assay: ALE THP1 HTRF (IRAK4 degradation in THP1 cells, HTRF with anti-IRAK4 antibodies)
Type: cell-based
Set-up: THP1 Homogeneous Time Resolved Fluorescence (ALE THP1 HTRF) Procedure; endogenous in cells; host or cells: THP1
Details: THP1 cell lysate, YMIN
Where a name gives a salt, the structure may show the parent alone.
Quantity: ALE THP1 HTRF YMIN (%)

compound="N[C@@H]1C[C@@H](F)CN(c2ccn3ncc(C(=O)Nc4cn([C@H]5CC[C@H](C(=O)N6CCC(CNc7ccc(C8CCC(=O)NC8=O)cc7)CC6)CC5)nc4C(F)(F)F)c3n2)C1 (stereo partly drawn) [Compound P-2, hydrochloride]" unit_string=% reported_result=68
compound="N[C@@H]1C[C@@H](F)CN(c2ccn3ncc(C(=O)Nc4cn([C@H]5CC[C@H](CCN6CCC7(CC6)CN(c6ccc(C8CCC(=O)NC8=O)cc6)C7)CC5)nc4C(F)F)c3n2)C1 (stereo partly drawn) [Compound P-23, formic acid salt]" unit_string=% reported_result=15
compound="N[C@@H]1C[C@@H](F)CN(c2ccn3ncc(C(=O)Nc4cn([C@H]5CC[C@H](CN6CCC(CNc7cccc(C8CCC(=O)NC8=O)c7)CC6)CC5)nc4C(F)(F)F)c3n2)C1 (stereo partly drawn) [Compound P-6, hydrochloride]" unit_string=% reported_result=15
compound="N[C@@H]1C[C@@H](F)CN(c2ccn3ncc(C(=O)Nc4cn([C@H]5CC[C@H](CCN6CCN(c7ccc(C8CCC(=O)NC8=O)cc7)CC6)CC5)nc4C(F)(F)F)c3n2)C1 (stereo partly drawn) [Compound P-11, hydrochloride]" unit_string=% reported_result=19

[P] N[C@@H]1C[C@@H](F)CN(c2ccn3ncc(C(=O)Nc4cn([C@H]5CC[C@H](CN6CCC(CNc7ccc(C8CCC(=O)NC8=O)cc7)CC6)CC5)nc4C(F)(F)F)c3n2)C1 (stereo partly drawn)
[Q] N[C@@H]1C[C@@H](F)CN(c2ccn3ncc(C(=O)Nc4cn([C@H]5CC[C@H](C(=O)N[C@H]6CC[C@H](c7ccc(C8CCC(=O)NC8=O)nc7)CC6)CC5)nc4C(F)F)c3n2)C1 (stereo partly drawn)
[R] N[C@@H]1C[C@@H](F)CN(c2ccn3ncc(C(=O)Nc4cn([C@H]5CC[C@H](CN6CCN(C(=O)c7ccc(C8CCC(=O)NC8=O)cc7)CC6)CC5)nc4C(F)(F)F)c3n2)C1 (stereo partly drawn)
**Query** Number of compounds to sort: 3. Sort criterion: ALE THP1 HTRF YMIN, ascending. Respond with an ordered listing of the labels, as requested.
**Result** Q, R, P

[I] N[C@@H]1C[C@@H](F)CN(c2ccn3ncc(C(=O)Nc4cn(C5CCN(CCN6CCN(c7ccc(C8CCC(=O)NC8=O)cc7)CC6)CC5)nc4C(F)F)c3n2)C1 (stereo partly drawn) [Compound P-27, trihydrochloride]
[II] N[C@@H]1C[C@@H](F)CN(c2ccn3ncc(C(=O)Nc4cn([C@H]5CC[C@H](CN6CCC(Nc7ccc(C8CCC(=O)NC8=O)cc7)CC6)CC5)nc4C(F)(F)F)c3n2)C1 (stereo partly drawn) [Compound P-5, hydrochloride]
**Query** // which entry has the larger ALE THP1 HTRF YMIN value, I or II ? Answer by stating the label of the chosen item.
**Result** II
(II: 45%, I: 16%)

[a] CN(CC1CCN(C(=O)[C@H]2CC[C@H](n3cc(NC(=O)c4cnn5ccc(N6C[C@H](N)C[C@@H](F)C6)nc45)c(C(F)F)n3)CC2)CC1)c1cccc(C2CCC(=O)NC2=O)c1 (stereo partly drawn) [Compound P-16, hydrochloride]
[b] N[C@@H]1C[C@@H](F)CN(c2ccn3ncc(C(=O)Nc4cn([C@H]5CC[C@H](CCN6CCC(Nc7cccc(C8CCC(=O)NC8=O)c7)CC6)CC5)nc4C(F)F)c3n2)C1 (stereo partly drawn) [Compound P-24, dihydrochloride]
[c] N[C@@H]1C[C@@H](F)CN(c2ccn3ncc(C(=O)Nc4cn([C@H]5CC[C@H](CCN6CCN(c7cccc(C8CCC(=O)NC8=O)c7)CC6)CC5)nc4C(F)F)c3n2)C1 (stereo partly drawn)
[d] N[C@@H]1C[C@@H](F)CN(c2ccn3ncc(C(=O)Nc4cn([C@H]5CC[C@H](C(=O)N6CCC7(CC6)CN(c6cccc(C8CCC(=O)NC8=O)c6)C7)CC5)nc4C(F)F)c3n2)C1 (stereo partly drawn)
**Query** Hey, quick one: sort these by ALE THP1 HTRF YMIN, largest value first please. Respond with an ordered listing of the labels, as requested.
**Result** d, c, a, b

====

Listing of recorded DC50 by entry.
Molecular target: IRAK4 (Homo sapiens, UniProt Q9NWZ3)
Assay: ALE THP1 HTRF (IRAK4 degradation in THP1 cells, HTRF with anti-IRAK4 antibodies)
Assay type: cell-based
Set-up: THP1 Homogeneous Time Resolved Fluorescence (ALE THP1 HTRF) Procedure; endogenous in cells; host or cells: THP1
Conditions: THP1 cell lysate, read-out: ALE THP1 HTRF EC50

compound="N[C@@H]1C[C@@H](F)CN(c2ccn3ncc(C(=O)Nc4cn([C@H]5CC[C@H](C(=O)N6CCC7(CC6)CN(c6cccc(C8CCC(=O)NC8=O)c6)C7)CC5)nc4C(F)F)c3n2)C1 (stereo partly drawn) [Compound P-17]" reported_result="> 10 µM"
compound="N[C@@H]1C[C@@H](F)CN(c2ccn3ncc(C(=O)Nc4cn([C@H]5CC[C@H](C(=O)N[C@H]6CC[C@@H](c7ccc(C8CCC(=O)NC8=O)nc7)CC6)CC5)nc4C(F)F)c3n2)C1 (stereo partly drawn) [Compound P-30]" reported_result="> 10 µM"

With those in mind, consider the next compound.
**Query** Report DC50 under test system IRAK4 (Homo sapiens, UniProt Q9NWZ3) for N[C@@H]1C[C@@H](F)CN(c2ccn3ncc(C(=O)Nc4cn([C@H]5CC[C@H](CN6CCN(C(=O)c7ccc(C8CCC(=O)NC8=O)cc7)CC6)CC5)nc4C(F)(F)F)c3n2)C1 (stereo partly drawn) [Compound P-4] .
**Result** > 10 µM
